- Test system: OVCAR-4
- PROTOCOL NOTES: NCI tumour cell line growth inhibition, 48 h
Calls of active or inactive are those of the source. Rule as the data show it: active = GI50 up to about 1.1 µM and inactive = higher.
QUANTITY MEASURED: GI50

Incoming: What value of GI50 has been recorded for this entry: CC1OC(n2cc(F)c(=O)[nH]c2=O)C=CC1=O (stereo not given)
Outgoing: 18.1 µM (inactive)

Incoming: Again, but for CC1=NN(c2ccccc2)C(=O)/C1=C/c1ccc(O)cc1
Outgoing: > 100 µM (inactive)

Incoming: Again, but for C=C1N(S(=O)(=O)c2ccc(C)cc2)C(=O)OCC12CCCC2
Outgoing: 72.6 µM (inactive)

Incoming: Again, but for CC(C)(C)OP(=O)(OC(C)(C)C)C(O)c1ccc(/C=C(\C#N)C(N)=O)cc1 (stereo not given)
Outgoing: > 100 µM (inactive)

Incoming: Again, but for N#CC1=C(c2ccccc2)NN(Cc2ccccc2)C(c2ccc(Cl)cc2)CC1=O (stereo not given)
Outgoing: 20.9 µM (inactive)

Incoming: Again, but for O=c1[nH]c2ccccc2c(=O)c2cc3ccccc3cc12
Outgoing: 23.4 µM (inactive)

Incoming: Again, but for Nc1cccc(S(=O)(=O)Nc2nnc(S(N)(=O)=O)s2)c1
Outgoing: > 100 µM (inactive)

Incoming: Again, but for CC#CC1C(OC(=O)c2ccccc2)CCCC1(CI)N=[N+]=[N-] (stereo not given)
Outgoing: 60.1 µM (inactive)

Incoming: Again, but for N#CC1=C(N)OC2=C(CCCc3ccccc32)C1c1ccc([N+](=O)[O-])cc1 (stereo not given)
Outgoing: 15.8 µM (inactive)

Incoming: Again, but for Cc1nc(C(N)=S)sc1/C(CC(=O)C(=O)Nc1cccc2ccc(O)cc12)=N\NC(=O)c1ccncc1
Outgoing: 49.9 µM (inactive)

Incoming: Again, but for C=CCCOC(=O)CO[N+](=O)[O-]
Outgoing: > 100 µM (inactive)

Incoming: Again, but for c1coc(CNc2[nH]cnc3nncc2-3)c1
Outgoing: > 100 µM (inactive)

Incoming: Again, but for C/C=C1/CN2CCC34C5=CC(=O)C(c6cc7c(cc6OC)N(C)C6=C(C(=O)OC)CC8(CC)CCCN9CCC67C98)=CC5=NC23CCC1C4C(=O)OC (stereo not given)
Outgoing: 14 µM (inactive)

Incoming: Again, but for Cc1ccc2c(c1)C(C1Cc3c(C)cccc3C1=O)OC2=O (stereo not given)
Outgoing: > 100 µM (inactive)

Incoming: Again, but for Cc1ccccc1OC(C)C(=O)NN1C(=O)CC(=O)N(c2ccc(Cl)cc2)C1=S (stereo not given)
Outgoing: 38.5 µM (inactive)

Incoming: Again, but for COC(=O)[C@@]12CCCC(=O)[C@@H]1[C@H]1CCCC[C@H]12
Outgoing: > 100 µM (inactive)

Incoming: Again, but for CN1CCN(C(=O)CCNC(=O)Cc2ccc(C(=O)c3ccccc3)cc2)CC1
Outgoing: > 100 µM (inactive)

Incoming: Again, but for O=C(Cc1ccccc1)NN1C(=O)/C(=C\c2cccc([N+](=O)[O-])c2)S/C1=N\c1ccccc1
Outgoing: > 100 µM (inactive)

Incoming: Again, but for C#CCn1ncc2c(SC)ncnc21
Outgoing: > 100 µM (inactive)

Incoming: Again, but for N=C(N)N/N=C/c1cnn(C(=N)N)c1
Outgoing: > 100 µM (inactive)

Incoming: Again, but for C/C(=N\Nc1nc2ccccc2n1C)c1cnccn1
Outgoing: 0.0504 µM (active)

Incoming: Again, but for Cc1ccc(C(=O)O/N=C2/CCC/C2=C\c2ccccc2)cc1
Outgoing: > 100 µM (inactive)

Incoming: Again, but for O=C1N2CCC[C@H]2CS1(=O)=O
Outgoing: 11.8 µM (inactive)

Incoming: Again, but for N#Cc1nc(C2CCC2)oc1N
Outgoing: > 100 µM (inactive)

Incoming: Again, but for NC1=NC(c2ccccc2)CC(c2cc(Cl)ccc2O)=N1 (stereo not given)
Outgoing: 17.9 µM (inactive)

Incoming: Again, but for CNc1ccc(OC)cc1S(=O)(=O)c1ccccc1[N+](=O)[O-]
Outgoing: > 100 µM (inactive)

Incoming: Again, but for COc1ccccc1-n1nnc2c(N)nc(N)nc21
Outgoing: > 100 µM (inactive)

Incoming: Again, but for O=c1[nH]nc(Cc2ccccc2)n1/N=C/c1ccco1
Outgoing: > 100 µM (inactive)

Incoming: Again, but for COc1ccc(-c2nc(N3CCCC3)no2)cc1
Outgoing: 34 µM (inactive)

Incoming: Again, but for CC(N)Cc1ccc(F)cc1 (stereo not given)
Outgoing: > 100 µM (inactive)

Incoming: Again, but for O=c1ccn(-c2ccccn2)c(=O)n1-c1ccccn1
Outgoing: > 100 µM (inactive)

Incoming: Again, but for O=C1C=C(Nc2ccccc2C(=O)CC(=O)C(=O)Nc2cccc([N+](=O)[O-])c2)c2ccccc2C1=O
Outgoing: 26.9 µM (inactive)

Incoming: Again, but for C=CC1[C@H]2COC(C)(C)O[C@@H]2CC(=O)C1(C)C (stereo not given in full)
Outgoing: > 100 µM (inactive)

Incoming: Again, but for CC(=O)Oc1ccc(CO)cc1OC(C)=O
Outgoing: > 100 µM (inactive)

Incoming: Again, but for N#C/C(=C\c1cccc(Br)c1)c1nc2ccccc2c(=O)[nH]1
Outgoing: > 100 µM (inactive)

Incoming: Again, but for O=C(O)CCc1ccc2c(c1)C(=O)CC2
Outgoing: > 100 µM (inactive)

Incoming: Again, but for O=c1[nH]ccc2c1ccn2C1CC(O)C(CO)O1 (stereo not given)
Outgoing: > 100 µM (inactive)

Incoming: Again, but for CC(C)C(O)(C(C)C)C(C)C
Outgoing: > 100 µM (inactive)

Incoming: Again, but for O=C(NCc1ccccc1)c1c(O)nc2ccccc2c1O
Outgoing: > 100 µM (inactive)

Incoming: Again, but for CC1(C)CCC[C@@]2(C)C1CC[C@H]1CC(O)C3(C)CCC12C3 (stereo not given in full)
Outgoing: 18.1 µM (inactive)

Incoming: Again, but for O=c1cc(-c2ccccc2)oc2c(-c3cc(Cl)cc4c(=O)cc(-c5ccccc5)oc34)cc(Cl)cc12
Outgoing: 41.9 µM (inactive)

Incoming: Again, but for CC1=C(C)C(=O)C(C2=CC(=O)c3ccccc3C2=O)=C(C2=CC(=O)c3ccccc3C2=O)C1=O
Outgoing: 5.04 µM (inactive)

Incoming: Again, but for CCN(CC)c1ccc2nc3ccc(/N=N/c4c(O)ccc5ccccc45)cc3[n+](-c3ccccc3)c2c1
Outgoing: > 100 µM (inactive)

Incoming: Again, but for CC(C)=CC(=O)c1c(C(=O)O)nc2ccccc2[n+]1[O-]
Outgoing: > 100 µM (inactive)

Incoming: Again, but for CC[n+]1cnc(N)c2c(-c3ccc(Cl)cc3)cn(-c3ccc(C)cc3)c21
Outgoing: 2.77 µM (inactive)

====

- Test system: SK-MEL-5
- PROTOCOL NOTES: NCI tumour cell line growth inhibition, 48 h
Active and inactive are the calls of the source. Rule as the data show it: active = GI50 up to about 1.1 µM and inactive = higher.
Please respond with reported GI50 for every item in the list.

Incoming: What value of GI50 has been recorded for this entry: CC1=NN(C(=O)CC(=O)Nc2ccccc2Cl)C(=O)C1/N=N/c1ccc(C(=O)O)cc1 (stereo not given)
Outgoing: > 100 µM (inactive)

Incoming: Again, but for CCOC(=O)c1nc2ccccc2nc1Oc1ccc(F)cc1
Outgoing: > 100 µM (inactive)

Incoming: Again, but for COC(=O)C(Cc1c(-c2[nH]c3ccccc3c2CC(NC(C)=O)C(=O)OC)[nH]c2ccccc12)NC(C)=O (stereo not given)
Outgoing: > 100 µM (inactive)

Incoming: Again, but for Cc1ccc(S(=O)(=O)N/N=C2\CC3C4CCC3C2C4)cc1 (stereo not given)
Outgoing: > 100 µM (inactive)

Incoming: Again, but for COc1cc(C(=O)CBr)c(OC)cc1C
Outgoing: 52.7 µM (inactive)

Incoming: Again, but for Cc1ccc(/N=N/C(C2=NC(=O)CS2)c2nc3ccccc3[nH]2)cc1 (stereo not given)
Outgoing: > 100 µM (inactive)

Incoming: Again, but for CCOC(=O)NC(C(C(=O)OCC)C(=O)OCC)(C(F)(F)F)C(F)(F)F
Outgoing: > 100 µM (inactive)

Incoming: Again, but for Clc1cc2ncn(C3CCCCO3)c2cc1Cl (stereo not given)
Outgoing: 38.4 µM (inactive)

Incoming: Again, but for C[C@]12CC(c3ccccc3O1)C(C(=O)Nc1nc(C34CC5CC(CC(C5)C3)C4)cs1)C(=O)N2 (stereo not given in full)
Outgoing: > 100 µM (inactive)

Incoming: Again, but for CCOC(=O)Cn1c(=O)c2nc(SC)sc2n(-c2ccccc2)c1=O
Outgoing: > 100 µM (inactive)

====

- Test system: HL-60
- PROTOCOL NOTES: NCI tumour cell line growth inhibition, 48 h
Calls of active or inactive are those of the source. Cut-off read from the data, not from the text of the source: active = GI50 up to about 1.1 µM and inactive = higher.
QUANTITY MEASURED: GI50

Incoming: What value of GI50 has been recorded for this entry: COc1ccc(N2C(=O)C3c4[nH]c5ccccc5c4C4CCCCCCCCCCC4C3C2=O)cc1 (stereo unspecified)
Outgoing: 18.9 µM (inactive)

Incoming: Again, but for CC(=O)Oc1ccc2c(c1)c1c(=O)oc(C)nc1n2Cc1ccccc1
Outgoing: 57.7 µM (inactive)

Incoming: Again, but for O=[N+]([O-])C[C@@]12O[C@]3(O)C4C5CC(C6C5C3C61)C42 (stereo partly specified)
Outgoing: > 100 µM (inactive)

Incoming: Again, but for CC(=O)SC(C[N+](=O)[O-])c1ccc2c(c1)OCO2 (stereo unspecified)
Outgoing: 1.97 µM (inactive)

Incoming: Again, but for C=C(Br)CN(C(C)=O)C1CCCCC1
Outgoing: > 100 µM (inactive)

Incoming: Again, but for Cn1c(=O)c(C(=O)Nc2nc(C34CC5CC(CC(C5)C3)C4)cs2)c(O)c2ccccc21
Outgoing: 86.9 µM (inactive)
